Target: chicken gizzard smooth muscle myosin subfragment-1 chemically crosslinked to cardiac or skeletal actin (Gallus gallus, UniProt P10587)
Construct: chicken gizzard smooth muscle myosin subfragment-1; from tissue; host or cells: chicken gizzard
Assay: Smooth muscle myosin ATPase dose response assay (pyruvate kinase/horseradish peroxidase/pyruvate oxidase-coupled, amplex red fluorescence)
Assay type: biochemical
Conditions: read-out: IC50 Arithmetic Mean
Could you mark each record YES if its IC50 falls strictly under 20 µM, and NO if it equals or exceeds it?

compound	answer-label
O=C(NCc1cccnc1)c1ccc(-c2ccc(CO)s2)nc1NCCc1cccc(F)c1	YES
O=C(NCc1cccnc1)c1ccc(-c2ccccc2)nc1NCCc1ccc(O)cc1	NO
CN(CCNC(=O)c1ccc(-c2ccccc2C#N)nc1NCCc1cccc(F)c1)C(=O)CNC(=O)OC(C)(C)C	YES
CC(C)(C)OC(=O)NCCCN1C(=O)CCCC1CNC(=O)c1ccc(-c2ccccc2C#N)nc1NCCc1cccc(F)c1 (centres unmarked)	YES
CN(C)C(=O)[C@H](CN)NC(=O)c1ccc(-c2ccccc2C#N)nc1NCCc1cccc(F)c1	NO
CCS(=O)(=O)N1CCNC[C@@H]1CNC(=O)c1ccc(-c2ccccc2C#N)nc1NCCc1cccc(F)c1	YES
Cc1ccc(-c2ccc(C(=O)NCc3cccnc3)c(NCCc3ccccn3)n2)cc1	YES
COC(=O)c1cc(Cl)c(-c2cnn(C)c2)nc1NCCc1cccc(F)c1	YES

====

Target: chicken gizzard smooth muscle myosin subfragment-1 chemically crosslinked to cardiac or skeletal actin (Gallus gallus)
pIC50: −log10 of the molar value.
# binarize pIC50: threshold 7 inclusive, high side T, low side F

test-smiles	answer-label
N#Cc1ccccc1-c1ccc(C(=O)NCc2cccc(NCCN)n2)c(NCCc2cccc(F)c2)n1	T
CNC(=O)CNC(=O)c1ccc(-c2ccccc2)nc1NCCc1ccccc1	F
N#Cc1ccccc1-c1ccc(C(=O)NCc2ccno2)c(NCCc2cccc(F)c2)n1	T
N#Cc1ccccc1-c1ccc(C(=O)N[C@H](CN)C(N)=O)c(NCCc2cccc(F)c2)n1	F
C[C@H](CNC(=O)c1cc(F)c(-c2cnn(C)c2)nc1NCCc1cccc(F)c1)NC(=O)CO	F
N#Cc1cc(C(=O)NC[C@H]2CCCN2)c(NCCc2cccc(F)c2)nc1-c1cn[nH]c1	F
O=C(NCc1cccnc1)c1ccc(-c2ccsc2)nc1NCCc1cccc(F)c1	T
N#Cc1ccccc1-c1ccc(C(=O)NC[C@H]2CCCN2C(=O)[C@@H](N)CN)c(NCCc2cccc(F)c2)n1	T
NCCn1nccc1CNC(=O)c1ccc(-c2cc[nH]n2)nc1NCCc1cccc(F)c1	F

====

Target: chicken gizzard smooth muscle myosin subfragment-1 chemically crosslinked to cardiac or skeletal actin (Gallus gallus, UniProt P10587)

test-smiles	IC50 / nM
Cn1cc(-c2nc(NCCc3cccc(F)c3)c(C(=O)NC[C@H]3CCCN3C(=O)CCCNC(=O)OC(C)(C)C)cc2Cl)cn1	683
Cn1cc(-c2nc(NCCc3cccc(F)c3)c(C(=O)NCCCNC(=O)CNC(=O)OC(C)(C)C)cc2F)cn1	768
O=C(NCc1ccncc1)c1ccc(-c2ccccc2)nc1NCCc1ccccn1	1290
Cc1cc(C(=O)NC[C@H]2CCC(=O)N2CCCNC(=O)OC(C)(C)C)c(NCCc2cccc(F)c2)nc1-c1cnn(C)c1	1460

====

Target: chicken gizzard smooth muscle myosin subfragment-1 chemically crosslinked to cardiac or skeletal actin (Gallus gallus, UniProt P10587)
pIC50: −log10 of the molar value.
pIC50 values by entry
measure-name: pIC50

test-smiles	reading
CNC(=O)NCCNC(=O)c1ccc(-c2ccccc2C#N)nc1NCCc1cccc(F)c1	6.06
NCCCN1C(=O)CC[C@@H]1CNC(=O)c1ccc(-c2cn[nH]c2)nc1NCCc1cccc(F)c1	6.02
O=C(NCc1cccnc1)c1ccc(-c2ccccc2)nc1NCCC1CCCCC1	5.73
CC(C)(C)OC(=O)NCCN1CCC[C@@H]1CNC(=O)c1ccc(-c2ccccc2C#N)nc1NCCc1cccc(F)c1	5.43
O=C(NCc1cccnc1)c1ccc(-c2cccc(F)c2)nc1NCCc1cccc(F)c1	6.80
